Molecular target: Calpain-1 catalytic subunit (Sus scrofa)
Sequence (P35750 whole entry): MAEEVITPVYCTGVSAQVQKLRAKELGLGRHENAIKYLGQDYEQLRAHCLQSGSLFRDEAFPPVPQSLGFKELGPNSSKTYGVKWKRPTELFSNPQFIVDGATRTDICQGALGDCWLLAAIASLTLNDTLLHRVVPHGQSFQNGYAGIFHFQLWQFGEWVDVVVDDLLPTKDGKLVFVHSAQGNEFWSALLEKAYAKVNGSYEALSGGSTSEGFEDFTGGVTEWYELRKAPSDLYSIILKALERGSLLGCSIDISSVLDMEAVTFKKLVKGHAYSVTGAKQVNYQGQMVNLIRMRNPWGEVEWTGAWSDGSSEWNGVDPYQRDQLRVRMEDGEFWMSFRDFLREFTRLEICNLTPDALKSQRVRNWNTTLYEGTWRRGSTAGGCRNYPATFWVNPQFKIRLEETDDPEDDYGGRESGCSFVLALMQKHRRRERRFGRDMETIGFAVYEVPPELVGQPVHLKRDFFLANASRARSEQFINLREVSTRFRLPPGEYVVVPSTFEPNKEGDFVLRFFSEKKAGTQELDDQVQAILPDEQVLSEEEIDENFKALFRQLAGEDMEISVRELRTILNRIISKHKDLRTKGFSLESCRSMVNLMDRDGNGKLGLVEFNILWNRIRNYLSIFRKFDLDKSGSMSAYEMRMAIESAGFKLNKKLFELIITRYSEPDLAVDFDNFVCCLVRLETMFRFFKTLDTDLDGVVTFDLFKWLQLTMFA
Experiment: Inhibition of Ca2+-dependent activation of porcine calpain-1 using H-K(FAM)-EVYGMMK(DABCYL)-OH as substrate by FRET assay
Lab note: anything with IC50 below 2000 nM is marked met; values at 2000 nM or higher are marked not met.

{"molecule": "O=C(O)/C(S)=C/c1ccc(I)cc1", "group": "not met"}
{"molecule": "O=C(O)/C(S)=C/c1c[nH]c2c(I)cccc12", "group": "met"}
{"molecule": "O=C(O)/C(S)=C/c1c[nH]c2cccc(Br)c12", "group": "met"}
{"molecule": "O=C(O)/C(S)=C/c1c[nH]c2cccc(Cl)c12", "group": "met"}
{"molecule": "O=C(O)/C(S)=C/c1c[nH]c2cc(F)ccc12", "group": "met"}

Input line: Is IC50 strictly under 2000 nM for the entry O=C(O)/C(S)=C/c1c[nH]c2ccc(I)cc12 ?
Output line: met

Input line: O=C(O)/C(S)=C/c1c[nH]c2c(Br)cccc12 ?
Output line: met

Input line: O=C(O)/C(S)=C/c1c[nH]c2ccc(F)cc12 ?
Output line: met

Input line: O=C(O)/C(S)=C/c1ccccc1F ?
Output line: not met

Input line: O=C(O)/C(S)=C/c1ccccc1Br ?
Output line: not met
